Data origin: the supplement of paper PMC11061612

Catalogue of combination Emax readings, one per entry.
Tested on: EFM-19 (Breast Carcinoma)
Assay: combination Emax (second highest fraction inhibited in the dose matrix, 72 h); higher = more inhibition; extreme values may be limits of the assay

Consider the worked cases shown below.
Query: Please tell me: combination Emax of CC1(C)CCC(CN2CCN(c3ccc(C(=O)NS(=O)(=O)c4ccc(NCC5CCOCC5)c([N+](=O)[O-])c4)c(Oc4cnc5[nH]ccc5c4)c3)CC2)=C(c2ccc(Cl)cc2)C1 [Venetoclax] + COc1cc(Nc2ncc3c(n2)-c2ccc(Cl)cc2C(c2c(F)cccc2OC)=NC3)ccc1C(=O)O [Alisertib] (first compound max 1 µM, 7x7, partner max 10 µM) , system EFM-19 (Breast Carcinoma)?
Response: 0.557

Query: # iterate: Cc1c2c(nn1C)CSCc1cc(n(C)n1)CSc1cc(c3ccccc3c1)OCCCc1c(C(=O)O)n(C)c3c-2c(Cl)ccc13 [AZD5991] + CC(=O)O[C@H]1C(=O)[C@@]2(C)[C@H]([C@H](OC(=O)c3ccccc3)[C@]3(O)C[C@H](OC(=O)[C@H](O)[C@@H](NC(=O)c4ccccc4)c4ccccc4)C(C)=C1C3(C)C)[C@]1(OC(C)=O)CO[C@@H]1C[C@@H]2O [Paclitaxel] (first compound max 1 µM, 7x7, partner max 3 µM)
Response: 0.931

Query: # iterate: C=CCn1c(=O)c2cnc(Nc3ccc(N4CCN(C)CC4)cc3)nc2n1-c1cccc(C(C)(C)O)n1 [AZD1775] + CCc1c2c(nc3ccc(O)cc13)-c1cc3c(c(=O)n1C2)COC(=O)[C@]3(O)CC [SN-38] (first compound max 1 µM, partner max 0.3 µM)
Response: 0.743

***
Query: Please tell me: combination Emax of NC1(C(=O)N[C@@H](CCO)c2ccc(Cl)cc2)CCN(c2ncnc3[nH]ccc23)CC1 [Capivasertib] + CC(=O)c1c(C)c2cnc(Nc3ccc(N4CCNCC4)cn3)nc2n(C2CCCC2)c1=O [Palbociclib] (first compound max 10 µM, 7x7, partner max 10 µM) , system EFM-19 (Breast Carcinoma)?
Response: 0.481

Query: # iterate: CC1(C)CCC(CN2CCN(c3ccc(C(=O)NS(=O)(=O)c4ccc(NCC5CCOCC5)c([N+](=O)[O-])c4)c(Oc4cnc5[nH]ccc5c4)c3)CC2)=C(c2ccc(Cl)cc2)C1 [Venetoclax] + C1CN(CCC1(C(=O)N[C@@H](CCO)C2=CC=C(C=C2)Cl)N)C3=NC=NC4=C3C=CN4 [Capivasertib] (first compound max 1 µM, 7x7, partner max 3 µM)
Response: 0.489

Query: # iterate: Cc1cc2ncnn2cc1Nc1ncc2c(n1)n(C1CCOCC1)c(=O)n2C [AZD7648] + COc1cc([C@@H]2c3cc4c(cc3[C@@H](O[C@@H]3O[C@@H]5CO[C@@H](C)O[C@H]5[C@H](O)[C@H]3O)[C@H]3COC(=O)[C@H]23)OCO4)cc(OC)c1O [Etoposide] (first compound max 10 µM, 7x7, partner max 10 µM)
Response: 0.615

---

Tested on: D-263MG (Glioblastoma)
Experiment: Bliss excess, mean over the matrix (fraction); higher = more synergy
Bliss excess of -0.02 or higher: true (1). Under -0.02: false (0).

Completed entries (count: 10):
Query: Tell me whether Bliss excess is at least -0.02 here: CCN(CCO)CCCOc1ccc2c(Nc3cc(CC(=O)Nc4cccc(F)c4)[nH]n3)ncnc2c1 [AZD2811] + O=C(c1cc(Cc2n[nH]c(=O)c3ccccc23)ccc1F)N1CCN(C(=O)C2CC2)CC1 [Olaparib] (first compound max 1 µM, 7x7, partner max 10 µM)
Response: true (1)

Query: # iterate: O=C(c1cc(Cc2n[nH]c(=O)c3ccccc23)ccc1F)N1CCN(C(=O)C2CC2)CC1 [Olaparib] + Cc1c2c(nn1C)CSCc1cc(n(C)n1)CSc1cc(c3ccccc3c1)OCCCc1c(C(=O)O)n(C)c3c-2c(Cl)ccc13 [AZD5991] (first compound max 10 µM, 7x7, partner max 1 µM)
Response: false (0)

Query: # iterate: NC1(C(=O)N[C@@H](CCO)c2ccc(Cl)cc2)CCN(c2ncnc3[nH]ccc23)CC1 [Capivasertib] + C[C@@H]1COCCN1C2=NC(=NC(=C2)C3(CC3)[S@](=N)(=O)C)C4=C5C=CNC5=NC=C4 [AZD6738] (first compound max 10 µM, 7x7, partner max 10 µM)
Response: false (0)

Query: # iterate: Cc1cc2ncnn2cc1Nc1ncc2c(n1)n(C1CCOCC1)c(=O)n2C [AZD7648] + C=CCn1c(=O)c2cnc(Nc3ccc(N4CCN(C)CC4)cc3)nc2n1-c1cccc(C(C)(C)O)n1 [AZD1775] (first compound max 10 µM, partner max 1 µM)
Response: true (1)

Query: # iterate: COc1nnc2ccc(N3CCC(c4ccc(OCCN5CCN(C)C(=O)[C@H]5C)cc4)CC3)nn12 [AZD5153] + C=CCn1c(=O)c2cnc(Nc3ccc(N4CCN(C)CC4)cc3)nc2n1-c1cccc(C(C)(C)O)n1 [AZD1775] (first compound max 1 µM, partner max 1 µM)
Response: false (0)

Query: # iterate: N#Cc1cnc(Nc2cc(NC[C@H]3CNCCO3)c(C(F)(F)F)cn2)cn1 [SRA737] + C=CCn1c(=O)c2cnc(Nc3ccc(N4CCN(C)CC4)cc3)nc2n1-c1cccc(C(C)(C)O)n1 [AZD1775] (first compound max 10 µM, partner max 1 µM)
Response: true (1)

Query: # iterate: CN(CCO)CC[C@H](CSc1ccccc1)Nc1ccc(S(=O)(=O)NC(=O)c2ccc(N3CCC([C@@H](O)c4ccccc4-c4ccc(Cl)cc4)CC3)cc2)cc1S(=O)(=O)C(F)(F)F [AZD4320] + C=CCn1c(=O)c2cnc(Nc3ccc(N4CCN(C)CC4)cc3)nc2n1-c1cccc(C(C)(C)O)n1 [AZD1775] (first compound max 1 µM, partner max 1 µM)
Response: false (0)

Query: # iterate: COc1nnc2ccc(N3CCC(c4ccc(OCCN5CCN(C)C(=O)[C@H]5C)cc4)CC3)nn12 [AZD5153] + C[C@@H]1COCCN1C2=NC(=NC(=C2)C3(CC3)[S@](=N)(=O)C)C4=C5C=CNC5=NC=C4 [AZD6738] (first compound max 1 µM, 7x7, partner max 10 µM)
Response: true (1)

Query: # iterate: CS(=O)(=O)CCNCc1ccc(-c2ccc3ncnc(Nc4ccc(OCc5cccc(F)c5)c(Cl)c4)c3c2)o1 [Lapatinib] + C[C@@H](Oc1cc(-c2cnn(C3CCNCC3)c2)cnc1N)c1c(Cl)ccc(F)c1Cl [Crizotinib] (first compound max 10 µM, 7x7, partner max 10 µM)
Response: false (0)

Query: # iterate: COc1cc2ncnc(Nc3ccc(F)c(Cl)c3)c2cc1OCCCN1CCOCC1 [Gefitinib] + CC(C)n1c(=O)n(C)c2cnc3cc(F)c(-c4ccc(OCCCN5CCCCC5)nc4)cc3c21 [AZD1390] (first compound max 10 µM, 7x7, partner max 0.3 µM)
Response: false (0)

***
Query: Tell me whether Bliss excess is at least -0.02 here: C=CCn1c(=O)c2cnc(Nc3ccc(N4CCN(C)CC4)cc3)nc2n1-c1cccc(C(C)(C)O)n1 [AZD1775] + C[C@@H]1COCCN1C2=NC(=NC(=C2)C3(CC3)[S@](=N)(=O)C)C4=C5C=CNC5=NC=C4 [AZD6738] (first compound max 1 µM, partner max 10 µM)
Response: false (0)

Query: # iterate: NC1(C(=O)N[C@@H](CCO)c2ccc(Cl)cc2)CCN(c2ncnc3[nH]ccc23)CC1 [Capivasertib] + CCN(CCO)CCCOc1ccc2c(Nc3cc(CC(=O)Nc4cccc(F)c4)[nH]n3)ncnc2c1 [AZD2811] (first compound max 10 µM, 7x7, partner max 1 µM)
Response: true (1)

Query: # iterate: CN(CCO)CC[C@H](CSc1ccccc1)Nc1ccc(S(=O)(=O)NC(=O)c2ccc(N3CCC([C@@H](O)c4ccccc4-c4ccc(Cl)cc4)CC3)cc2)cc1S(=O)(=O)C(F)(F)F [AZD4320] + CCN(CCO)CCCOc1ccc2c(Nc3cc(CC(=O)Nc4cccc(F)c4)[nH]n3)ncnc2c1 [AZD2811] (first compound max 1 µM, 7x7, partner max 1 µM)
Response: true (1)

---

Test system: Hs-766T (Pancreatic Carcinoma)
Assay: Bliss excess, mean over the matrix (fraction); higher = more synergy
attribute-measured: Bliss excess

Query: Please tell me: Bliss excess of C[C@@H](Nc1cc(F)cc(F)c1)c1cc(C(=O)N(C)C)cc2c(=O)cc(N3CCOCC3)oc12 [AZD8186] + CC(=O)c1c(C)c2cnc(Nc3ccc(N4CCNCC4)cn3)nc2n(C2CCCC2)c1=O [Palbociclib] (first compound max 10 µM, 7x7, partner max 10 µM) , system Hs-766T (Pancreatic Carcinoma)?
Response: 0.006

Query: # iterate: C[C@@H]1COCCN1c1cc(C2([S@](C)(=N)=O)CC2)nc(-c2ccnc3[nH]ccc23)n1 [AZD6738] + C1CC(C1)(C(=O)[O-])C(=O)[O-].N.N.[Pt+2] [Carboplatin] (first compound max 10 µM, 7x7, partner max 10 µM)
Response: -0.0536

Query: # iterate: CCN(CCO)CCCOc1ccc2c(Nc3cc(CC(=O)Nc4cccc(F)c4)[nH]n3)ncnc2c1 [AZD2811] + C[C@@H]1COCCN1C2=NC(=NC(=C2)C3(CC3)[S@](=N)(=O)C)C4=C5C=CNC5=NC=C4 [AZD6738] (first compound max 1 µM, 7x7, partner max 10 µM)
Response: -0.0734

***
Query: Please tell me: Bliss excess of CC(=O)c1c(C)c2cnc(Nc3ccc(N4CCNCC4)cn3)nc2n(C2CCCC2)c1=O [Palbociclib] + CC1(C)CCC(CN2CCN(c3ccc(C(=O)NS(=O)(=O)c4ccc(NCC5CCOCC5)c([N+](=O)[O-])c4)c(Oc4cnc5[nH]ccc5c4)c3)CC2)=C(c2ccc(Cl)cc2)C1 [Venetoclax] (first compound max 10 µM, 7x7, partner max 1 µM) , system Hs-766T (Pancreatic Carcinoma)?
Response: -0.0544

Query: # iterate: Cc1nc(-c2cn3c(n2)-c2ccc(-c4cnn(C(C)(C)C(N)=O)c4)cc2OCC3)n(C(C)C)n1 [Taselisib] + O=C(Nc1ccc2[nH]nc(-c3ccncc3)c2c1)[C@@H]1CCN(CC(=O)N2CCN(c3ccc(-c4ncccn4)cc3)CC2)C1 [SCH772984] (first compound max 10 µM, 7x7, partner max 5 µM)
Response: -0.0386

Query: # iterate: C[C@@H](Oc1cc(-c2cnn(C3CCNCC3)c2)cnc1N)c1c(Cl)ccc(F)c1Cl [Crizotinib] + Cn1cnc2c(F)c(Nc3ccc(Br)cc3Cl)c(C(=O)NOCCO)cc21 [Selumetinib] (first compound max 10 µM, 7x7, partner max 10 µM)
Response: -0.0074

Query: # iterate: Cc1c2c(nn1C)CSCc1cc(n(C)n1)CSc1cc(c3ccccc3c1)OCCCc1c(C(=O)O)n(C)c3c-2c(Cl)ccc13 [AZD5991] + C[C@@H](Nc1cc(F)cc(F)c1)c1cc(C(=O)N(C)C)cc2c(=O)cc(N3CCOCC3)oc12 [AZD8186] (first compound max 1 µM, 7x7, partner max 3 µM)
Response: -0.111
